Reported pKd values follow for various molecules
# assay-system: Mer (Homo sapiens, UniProt Q12866)
# Construct: purchased Life Technologies
# Sequence (Q12866 21-999): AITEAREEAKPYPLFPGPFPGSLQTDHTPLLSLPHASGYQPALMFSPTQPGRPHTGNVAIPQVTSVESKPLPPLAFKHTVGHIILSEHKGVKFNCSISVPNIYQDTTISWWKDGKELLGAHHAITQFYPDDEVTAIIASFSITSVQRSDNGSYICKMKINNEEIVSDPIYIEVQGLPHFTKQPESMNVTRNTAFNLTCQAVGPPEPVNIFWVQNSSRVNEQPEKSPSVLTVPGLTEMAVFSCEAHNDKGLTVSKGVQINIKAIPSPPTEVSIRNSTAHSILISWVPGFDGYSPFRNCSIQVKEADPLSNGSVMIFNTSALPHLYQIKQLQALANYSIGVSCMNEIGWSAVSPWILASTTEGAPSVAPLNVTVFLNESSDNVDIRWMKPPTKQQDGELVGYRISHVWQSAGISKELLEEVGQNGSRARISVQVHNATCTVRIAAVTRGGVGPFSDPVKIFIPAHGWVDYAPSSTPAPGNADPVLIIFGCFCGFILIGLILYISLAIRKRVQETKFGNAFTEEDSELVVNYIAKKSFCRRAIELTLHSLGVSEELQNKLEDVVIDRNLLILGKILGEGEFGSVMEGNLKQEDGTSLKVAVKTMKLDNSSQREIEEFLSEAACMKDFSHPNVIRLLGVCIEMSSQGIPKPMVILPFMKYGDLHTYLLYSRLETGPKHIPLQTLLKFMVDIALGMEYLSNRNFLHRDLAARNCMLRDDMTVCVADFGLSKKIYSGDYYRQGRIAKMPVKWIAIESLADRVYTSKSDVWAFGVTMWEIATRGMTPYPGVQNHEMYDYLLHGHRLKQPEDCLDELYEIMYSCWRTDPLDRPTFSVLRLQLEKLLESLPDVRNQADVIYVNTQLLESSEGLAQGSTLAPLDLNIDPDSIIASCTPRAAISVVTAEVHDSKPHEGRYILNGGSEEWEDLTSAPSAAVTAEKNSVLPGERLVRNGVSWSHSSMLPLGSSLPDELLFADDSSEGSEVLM
# test: LanthaScreen Eu kinase binding assay for Mer
# measurement-parameters: read-out: Mer kinase binding activity (Kd)
pKd: −log10 of the molar value.
outcome-measure: pKd

> print(dat)
                               entry.smiles  outcome.measure  readout.value
1  CCn1cc(OCC(F)(F)F)c(C(=O)Nc2ccc(Oc3ccnc4cc(OC)c(OC)cc34)cn2)n1              pKd         > 7.00
2  CCCn1cc(OCCN(C)C)c(C(=O)Nc2ccc(Oc3ccnc4cc(OC)c(OC)cc34)c(F)c2)n1              pKd         ≤ 6.30
3  COc1cc2nccc(Oc3ccc(NC(=O)c4nn(CCC(F)(F)F)cc4OCC4CCC4)nc3)c2cc1OC              pKd         > 7.00
